The reported measurements were obtained from patent US9637483B2.

# target.entity: JAK2 (Homo sapiens)
# Construct: purchased Invitrogen
# Sequence (O60674 whole entry): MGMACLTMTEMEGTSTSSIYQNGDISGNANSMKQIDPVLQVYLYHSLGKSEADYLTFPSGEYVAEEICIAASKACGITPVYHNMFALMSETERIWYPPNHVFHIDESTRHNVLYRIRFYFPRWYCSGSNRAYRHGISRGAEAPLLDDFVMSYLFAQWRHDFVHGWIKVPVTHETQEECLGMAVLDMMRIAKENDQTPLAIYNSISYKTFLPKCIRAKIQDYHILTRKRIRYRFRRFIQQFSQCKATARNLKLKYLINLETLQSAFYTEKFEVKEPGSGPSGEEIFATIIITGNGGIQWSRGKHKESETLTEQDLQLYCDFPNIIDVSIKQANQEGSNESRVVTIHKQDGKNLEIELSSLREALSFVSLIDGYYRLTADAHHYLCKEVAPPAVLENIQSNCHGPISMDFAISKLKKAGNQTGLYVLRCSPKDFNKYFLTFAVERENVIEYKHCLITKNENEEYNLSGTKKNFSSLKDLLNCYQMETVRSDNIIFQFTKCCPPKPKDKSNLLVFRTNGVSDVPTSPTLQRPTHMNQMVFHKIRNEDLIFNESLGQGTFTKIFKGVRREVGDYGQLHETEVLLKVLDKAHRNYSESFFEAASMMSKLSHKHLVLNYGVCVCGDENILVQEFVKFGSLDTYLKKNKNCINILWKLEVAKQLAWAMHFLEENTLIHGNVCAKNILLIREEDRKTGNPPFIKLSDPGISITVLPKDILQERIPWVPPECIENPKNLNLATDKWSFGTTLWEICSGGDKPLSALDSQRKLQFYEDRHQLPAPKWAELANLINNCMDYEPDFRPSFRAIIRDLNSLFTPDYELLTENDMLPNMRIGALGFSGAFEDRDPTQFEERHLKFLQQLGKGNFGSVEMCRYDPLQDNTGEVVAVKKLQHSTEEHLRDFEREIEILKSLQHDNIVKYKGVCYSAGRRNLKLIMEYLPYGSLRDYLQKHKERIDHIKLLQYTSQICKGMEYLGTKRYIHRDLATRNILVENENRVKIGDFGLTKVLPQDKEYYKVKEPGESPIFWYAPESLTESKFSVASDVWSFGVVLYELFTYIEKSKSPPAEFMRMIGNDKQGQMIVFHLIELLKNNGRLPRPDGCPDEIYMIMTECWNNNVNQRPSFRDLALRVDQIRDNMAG
# protocol.description: JAK2 enzyme inhibition test (LANCE method)
# Type: biochemical
# settings: 1 μM test compound; read-out: JAK2 enzyme inhibitory activity (%, 1 μM)
Field: inhibition at 1 µM. Provide a value for each of the compounds that follow.
Numbers only, in %.

Completed entries (count: 7):
Tell me reported inhibition at 1 µM for CC(C)[C@H](C)n1cc(-c2cc(N(C)C3CCCC3)n(C)n2)c2[nH]nc(N)c2c1=O , tested with JAK2 (Homo sapiens).
98

Tell me reported inhibition at 1 µM for C[C@@H](C1CC1)n1cc(-c2cc(N3CCS(=O)(=O)CC3)n(C)n2)c2[nH]nc(N)c2c1=O , tested with JAK2 (Homo sapiens).
100

Tell me reported inhibition at 1 µM for CC(C)[C@H](C)n1cc(-c2cc(N3CCN(C)CC3)n(C)n2)c2[nH]nc(N)c2c1=O , tested with JAK2 (Homo sapiens).
98

Tell me reported inhibition at 1 µM for Cn1nc(-c2cn(C(C3CC3)C3CC3)c(=O)c3c(N)n[nH]c23)cc1N1CC[C@H](O)C1 , tested with JAK2 (Homo sapiens).
99

Tell me reported inhibition at 1 µM for C[C@@H](C1CC1)n1cc(-c2cc(N3CCC(O)(C(F)(F)F)CC3)n(C)n2)c2[nH]nc(N)c2c1=O , tested with JAK2 (Homo sapiens).
100

Tell me reported inhibition at 1 µM for CC(C)[C@H](C)n1cc(-c2cc(C3=CCOCC3)n(C)n2)c2[nH]nc(N)c2c1=O , tested with JAK2 (Homo sapiens).
99

Tell me reported inhibition at 1 µM for Cc1cc(-c2cn(C(C3CC3)C3CC3)c(=O)c3c(N)n[nH]c23)nn1C , tested with JAK2 (Homo sapiens).
96

Now examine the next entry.
Tell me reported inhibition at 1 µM for CC(C)[C@H](C)n1cc(-c2cc(C(=O)N(C)C3CCOCC3)n(C)n2)c2[nH]nc(N)c2c1=O , tested with JAK2 (Homo sapiens).
96
